Just for reference, ChEMBL document CHEMBL6083269 is where these values come from.

- PROTOCOL_NOTES: Cytotoxicity against human […]-differentiated THP-1 cells incubated for 72 hrs by resazurin dye based assay
- Assay type: toxicity, cell-based
EXPERIMENTAL_READOUT: IC50 at 72 h (µM)
All answers are understood in µM, so give the number only.

C#CCn1cc(/C=N\N)c2cc([N+](=O)[O-])ccc21 ... 61
C#CCn1cc(/C=N/N=C\C=C(C)C)c2cc([N+](=O)[O-])ccc21 ... 92.6
C#CCn1cc(/C=N\N=C\c2cnc[nH]2)c2cc([N+](=O)[O-])ccc21 ... 42.5
C#CCn1cc(/C=N\N=C\c2ccc([N+](=O)[O-])cc2)c2cc([N+](=O)[O-])ccc21 ... 25.7
C#CCn1cc(/C=N\N=C\c2nccn2C)c2cc([N+](=O)[O-])ccc21 ... 29.7
C#CCn1cc(\C=N/N=C/C=C/c2ccccc2)c2cc([N+](=O)[O-])ccc21 ... 35.8
C#CCn1cc(/C=N\N=C\c2cccs2)c2cc([N+](=O)[O-])ccc21 ... 16.6
C#CCn1cc(/C=N\N=C/C)c2cc([N+](=O)[O-])ccc21 ... 59.3
C#CCn1cc(/C=N\N=C/C2CC2)c2cc([N+](=O)[O-])ccc21 ... 51.8

Please turn your attention to the following entry.
Input: Give the measured IC50 at 72 h of C#CCn1cc(/C=N\N=C\c2ccncc2)c2cc([N+](=O)[O-])ccc21 .
Output: 66.4
